# TARGET OR TEST SYSTEM: Human sputum neutrophil elastase (Homo sapiens, UniProt P08246)
# Sequence (P08246 30-247 limits assumed): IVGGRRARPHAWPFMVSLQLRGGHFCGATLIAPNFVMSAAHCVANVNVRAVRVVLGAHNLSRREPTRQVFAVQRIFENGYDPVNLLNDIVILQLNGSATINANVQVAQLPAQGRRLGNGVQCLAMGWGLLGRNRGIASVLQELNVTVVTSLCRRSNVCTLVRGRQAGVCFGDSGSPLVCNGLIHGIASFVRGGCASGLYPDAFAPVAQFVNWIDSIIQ
# MEASUREMENT NOTES: Inhibitor IC50 against human neutrophil elastase (fluorogenic MeOSuc-AAPV-AMC substrate)
# PARTICULARS: 20 min preincubation, read-out: HNE IC50
pIC50: −log10 of the molar value.
Recorded pIC50 values for a group of compounds are listed next.

Can you share its pIC50? I mean this compound: CCc1cc(OC)cc2nc(-c3cccnc3N(C)CCN3CCCC3)oc(=O)c12
> 7.82

Field: next compound
Look at this compound and give its reported pIC50. Cc1cccc2nc(-c3cccnc3N(C)C3CCN(C)C3)oc(=O)c12 (centres unmarked)
6.82 to 7.21

----------
# TARGET OR TEST SYSTEM: Human sputum neutrophil elastase (Homo sapiens)
# MEASUREMENT NOTES: Inhibitor IC50 against human neutrophil elastase (fluorogenic MeOSuc-AAPV-AMC substrate)
# PARTICULARS: 20 min preincubation, read-out: HNE IC50
READOUT NAME: IC50

What does the data say about its IC50? Entry: CCc1cc(OC)cc2nc(-c3cccnc3N3CCC(C)(C(=O)NCCN(CC)CC)CC3)oc(=O)c12 [Compound 274]
< 15 nM

Any idea what its IC50 is? The compound is COc1cc(C(C)C)c2c(=O)oc(-c3cccnc3N(C)C3CCN(C)C3)nc2c1 (centres unmarked) [Compound 117]
61 to 150 nM

Please report the recorded IC50 for O=c1oc(-c2cccnc2SCCS(=O)(=O)c2ccccc2)nc2cccc(Cl)c12 [Compound 30] .
16 to 60 nM

State the recorded IC50 for this entry: O=c1oc(-c2ccccn2)nc2cccc(Cl)c12 [Compound 12]
61 to 150 nM

Given the compound O=c1oc(-c2cccnc2Oc2ccc(F)cc2)nc2cccc(Cl)c12 [Compound 26] , what is its reported IC50?
61 to 150 nM

Which measured IC50 value corresponds to COc1cc(C2CCC2)c2c(=O)oc(-c3cccnc3N3CCN(CCN4CCOCC4)CC3)nc2c1 [Compound 187] ?
> 150 nM

Returns the measured IC50 for the input compound. Input: CCc1cc(OC)cc2nc(-c3cccnc3N(CC)CCCN3CCOCC3)oc(=O)c12 [Compound 238]
< 15 nM

Need IC50, item COc1cc(C(C)C)c2c(=O)oc(-c3cnn(C)c3[N+](=O)[O-])nc2c1 [Compound 120]
16 to 60 nM

Could you share which IC50 value was measured for CCc1cc(OC)cc2nc(-c3cccnc3N3CC4CC3CN4CC)oc(=O)c12 (centres unmarked) [Compound 254] ?
16 to 60 nM

Recorded IC50 for O=c1oc(-c2cccnc2-n2ccnc2)nc2cccc(C(F)(F)F)c12 [Compound 64] , please?
< 15 nM

More entries:
Fill in: IC50 of Cc1cccc2nc(-c3cccnc3F)oc(=O)c12 [Compound 34] is ___
61 to 150 nM

Given Cc1cccc2nc(-c3cccnc3OCCOCCOCCOCCO)oc(=O)c12 [Compound 57] , state its recorded IC50.
61 to 150 nM

Please look up its IC50: COc1cccc2nc(-c3cccnc3N(C)CC(=O)OCc3ccccc3)oc(=O)c12 [Compound 41]
> 150 nM

For the compound shown here, COc1cc(C(C)C)c2c(=O)oc(-c3cccnc3N3CC[N+](C)(C)CC3)nc2c1 [Compound 130] , give the reported IC50.
61 to 150 nM

Would you mind telling me what IC50 value was observed for COc1ccc(-c2nc3cccc(C)c3c(=O)o2)c(OC)n1 [Compound 22] ?
< 15 nM

Please give the measured IC50 for this compound: CCc1cccc2nc(-c3cccnc3N3CC[N+](C)(Cc4ccc(OC)cc4)CC3)oc(=O)c12 [Compound 102]
< 15 nM

// returns reported IC50 for input C#CCOC(=O)NCCN1CCN(c2ncccc2-c2nc3cc(OC)cc(CC)c3c(=O)o2)CC1 [Compound 227]
16 to 60 nM
